test: Dose escalation study, single/multiple dose and loading dose regimens: pharmacokinetics; type: in vivo, human; conditions: human, in vivo, 550 mg, Period 2 Day 6, 550 mg BID; read-out: AUC(0-12), mean
assay.metric: AUC(0-t) (µg·h/mL)
Write down the numeric answer in µg·h/mL and omit the unit.

Problem: # input molecule: CC(=O)O[C@H]1C[C@@]2(C)[C@@H](C[C@@H](O)[C@H]3[C@@]4(C)CC[C@@H](O)[C@@H](C)[C@@H]4CC[C@@]32C)/C1=C(\CCC=C(C)C)C(=O)O [CEM-102, Sodium fusidate] ; wanted: its AUC(0-t)
Result: 1150

----------
experiment: Single oral dose bioavailability study, fed/fasted crossover, plasma fusidic acid; settings: human, in vivo, 500 mg, 500 mg single oral dose, fasting, read-out: Cmax, geometric mean (CV %)
assay.metric: Cmax (ng/mL)
Give just the numeric value; ng/mL need not be written.

Problem: Recorded Cmax of CC(=O)O[C@H]1C[C@@]2(C)[C@@H](C[C@@H](O)[C@H]3[C@@]4(C)CC[C@@H](O)[C@@H](C)[C@@H]4CC[C@@]32C)/C1=C(\CCC=C(C)C)C(=O)O [CEM-102, Sodium fusidate] , please.
Result: 27400
